Listed below: IC50 values for each entry.
Target: ErbB2 (Homo sapiens)
Sequence (P04626 23-1255, species assumed): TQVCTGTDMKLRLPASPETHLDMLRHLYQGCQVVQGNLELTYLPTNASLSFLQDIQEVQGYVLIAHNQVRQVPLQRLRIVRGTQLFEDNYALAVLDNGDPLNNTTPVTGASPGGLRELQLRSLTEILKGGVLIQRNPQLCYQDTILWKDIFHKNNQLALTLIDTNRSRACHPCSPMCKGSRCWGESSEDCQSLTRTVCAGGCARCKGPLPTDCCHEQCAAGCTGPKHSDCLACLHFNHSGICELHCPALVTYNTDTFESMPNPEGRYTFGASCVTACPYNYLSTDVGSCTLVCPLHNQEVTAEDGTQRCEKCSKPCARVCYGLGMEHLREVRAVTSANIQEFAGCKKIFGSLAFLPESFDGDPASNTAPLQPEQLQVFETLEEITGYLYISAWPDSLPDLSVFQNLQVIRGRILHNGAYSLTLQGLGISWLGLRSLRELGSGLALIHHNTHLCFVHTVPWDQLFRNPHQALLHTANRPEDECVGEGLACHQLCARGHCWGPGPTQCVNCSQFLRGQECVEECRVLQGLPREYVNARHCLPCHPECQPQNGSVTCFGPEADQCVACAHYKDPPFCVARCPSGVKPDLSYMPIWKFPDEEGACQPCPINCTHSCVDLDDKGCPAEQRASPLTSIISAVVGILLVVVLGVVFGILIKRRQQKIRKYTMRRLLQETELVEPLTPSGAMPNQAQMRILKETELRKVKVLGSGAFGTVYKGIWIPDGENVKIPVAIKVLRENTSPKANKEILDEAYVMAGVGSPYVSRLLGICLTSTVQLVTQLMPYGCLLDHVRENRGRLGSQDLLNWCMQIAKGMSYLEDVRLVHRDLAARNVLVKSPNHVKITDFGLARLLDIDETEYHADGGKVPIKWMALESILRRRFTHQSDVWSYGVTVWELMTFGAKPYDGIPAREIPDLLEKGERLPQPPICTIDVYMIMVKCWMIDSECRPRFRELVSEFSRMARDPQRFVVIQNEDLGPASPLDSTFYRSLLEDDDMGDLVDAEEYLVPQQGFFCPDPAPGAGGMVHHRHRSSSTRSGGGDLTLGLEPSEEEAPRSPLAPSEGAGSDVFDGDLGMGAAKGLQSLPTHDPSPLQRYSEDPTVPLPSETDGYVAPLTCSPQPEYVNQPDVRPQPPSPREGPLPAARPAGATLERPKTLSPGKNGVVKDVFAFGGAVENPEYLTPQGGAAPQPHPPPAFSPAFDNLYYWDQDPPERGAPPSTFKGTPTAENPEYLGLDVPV

molecule: COc1cc(Nc2ncnc(-n3c(N[C@@H](C)c4ccccc4)nc4ccccc43)n2)cc(OC)c1OC [Compound 1033]
observable: IC50
recordedMeasurement: 7.03 to 9.04 µM
--
molecule: COc1cc(Nc2ncnc(NC3CC3c3ccccc3)n2)cc(OC)c1OC (centres unmarked) [Compound 428]
observable: IC50
recordedMeasurement: 1.02 to 6.1 µM
--
molecule: COc1cc(Nc2ncnc(N3CCCc4ccc(C(F)(F)F)cc43)n2)cc(OC)c1OC [Compound 518]
observable: IC50
recordedMeasurement: 0.867 to 5.2 µM
--
molecule: COC(=O)c1ccc(-c2cc(Nc3ncnc(NCCN4CCOCC4)n3)[nH]n2)cc1 [Compound 808]
observable: IC50
recordedMeasurement: > 10.6 µM
--
molecule: C=CCNc1nc2ccccc2n1-c1ncnc(Nc2cc(OC)c(OC)c(OC)c2)n1 [Compound 574]
observable: IC50
recordedMeasurement: > 10.4 µM

Give IC50 (ErbB2 (Homo sapiens)) of the following molecule: COc1cc(Nc2ncnc(Nc3cc(F)cc(C(F)(F)F)c3)n2)cc(OC)c1OC [Compound 632]
0.91 to 5.46 µM

Given the entry CCN(CC)C(=O)C1CCCN(c2ncnc(Nc3cc(OC)c(OC)c(OC)c3)n2)C1 (centres unmarked) [Compound 615] , what IC50 was observed with ErbB2 (Homo sapiens)?
> 10.1 µM

---

Molecular target: c-Met (Homo sapiens, UniProt P08581)
Construct: Kinases are expressed as either kinase domains or full length constructs; made in house
Sequence (P08581 25-1390): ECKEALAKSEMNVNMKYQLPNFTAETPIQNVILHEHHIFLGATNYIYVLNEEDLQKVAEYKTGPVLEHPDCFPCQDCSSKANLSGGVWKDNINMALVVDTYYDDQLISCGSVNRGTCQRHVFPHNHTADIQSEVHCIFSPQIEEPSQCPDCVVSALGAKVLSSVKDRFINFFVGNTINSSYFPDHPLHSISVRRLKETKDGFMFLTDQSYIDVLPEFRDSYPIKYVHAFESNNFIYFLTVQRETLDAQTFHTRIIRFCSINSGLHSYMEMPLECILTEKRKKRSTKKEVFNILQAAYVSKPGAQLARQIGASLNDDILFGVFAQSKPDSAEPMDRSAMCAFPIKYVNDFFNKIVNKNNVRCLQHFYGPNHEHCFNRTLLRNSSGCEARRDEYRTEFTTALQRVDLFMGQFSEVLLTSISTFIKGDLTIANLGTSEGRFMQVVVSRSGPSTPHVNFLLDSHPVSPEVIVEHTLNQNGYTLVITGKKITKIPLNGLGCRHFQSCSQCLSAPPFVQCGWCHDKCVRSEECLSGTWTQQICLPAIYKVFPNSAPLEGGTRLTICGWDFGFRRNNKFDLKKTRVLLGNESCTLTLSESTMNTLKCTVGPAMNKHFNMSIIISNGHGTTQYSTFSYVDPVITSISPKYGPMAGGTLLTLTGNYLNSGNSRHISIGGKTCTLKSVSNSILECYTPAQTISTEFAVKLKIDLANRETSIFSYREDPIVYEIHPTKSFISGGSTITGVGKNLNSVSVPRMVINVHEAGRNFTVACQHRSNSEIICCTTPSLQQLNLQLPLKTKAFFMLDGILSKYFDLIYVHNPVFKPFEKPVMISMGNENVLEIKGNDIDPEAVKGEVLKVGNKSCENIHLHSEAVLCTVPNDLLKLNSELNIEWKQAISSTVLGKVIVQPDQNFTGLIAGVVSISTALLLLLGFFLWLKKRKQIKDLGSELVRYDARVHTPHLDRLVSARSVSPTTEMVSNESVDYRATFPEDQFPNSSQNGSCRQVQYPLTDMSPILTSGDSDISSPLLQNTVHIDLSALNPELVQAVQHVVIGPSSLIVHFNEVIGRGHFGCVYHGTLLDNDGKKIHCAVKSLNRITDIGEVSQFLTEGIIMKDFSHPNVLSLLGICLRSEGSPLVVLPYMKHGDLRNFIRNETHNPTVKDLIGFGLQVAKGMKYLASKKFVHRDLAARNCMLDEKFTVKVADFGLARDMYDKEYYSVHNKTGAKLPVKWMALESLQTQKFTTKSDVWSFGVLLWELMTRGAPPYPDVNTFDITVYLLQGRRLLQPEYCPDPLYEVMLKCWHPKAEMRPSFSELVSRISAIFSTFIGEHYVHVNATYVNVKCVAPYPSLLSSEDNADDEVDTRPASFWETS
Assay: Kinase inhibition assay (33P transfer), c-Met
Format: biochemical
Details: Table 2, class symbols A-E; read-out: Met-1
pIC50: −log10 of the molar value.
Here the recorded pIC50 is given for each entry.

Example entries and their recorded answers appear below.
molecule: Brc1cccc(Nc2ncnc(Nc3cccc(Cn4ccnn4)c3)n2)c1
tgt: c-Met (Homo sapiens, UniProt P08581)
pIC50: < 4.97

molecule: O=C(O)c1cccc(Nc2ncnc(-n3c(NCc4ccccc4)nc4ccccc43)n2)c1
tgt: c-Met (Homo sapiens, UniProt P08581)
pIC50: < 4.99

Query for c-Met (Homo sapiens, UniProt P08581): what pIC50 does the record show for COc1cc(Nc2ncnc(-c3cccnc3NC3CCN(Cc4ccccc4)CC3)n2)cc(OC)c1OC ?
< 5.07

# get_value(readout= pIC50, system= c-Met (Homo sapiens, UniProt P08581)) for COc1ccc(CNc2ncnc(Nc3cc(-c4ccco4)n[nH]3)n2)cc1
< 4.91

Hi! What's the reported pIC50 for CC(C)Nc1ncccc1-c1ncnc(Nc2ccc(N3CCOCC3)cc2)n1 on c-Met (Homo sapiens, UniProt P08581)?
5.21 to 5.99

Identify the measured pIC50 of COc1ccc(Nc2ncnc(NCc3ccc(C)c(Cl)c3)n2)cc1OC for c-Met (Homo sapiens, UniProt P08581).
< 4.93

Test system c-Met (Homo sapiens, UniProt P08581); read-out pIC50; what value for COc1cc(Nc2ncnc(N3CCCc4ccc(Cl)cc43)n2)cc(OC)c1OC ?
< 4.98

---

Target: Itk (Homo sapiens)
Construct: Kinases are expressed as either kinase domains or full length constructs; made in house
Sequence (Q08881 1-620): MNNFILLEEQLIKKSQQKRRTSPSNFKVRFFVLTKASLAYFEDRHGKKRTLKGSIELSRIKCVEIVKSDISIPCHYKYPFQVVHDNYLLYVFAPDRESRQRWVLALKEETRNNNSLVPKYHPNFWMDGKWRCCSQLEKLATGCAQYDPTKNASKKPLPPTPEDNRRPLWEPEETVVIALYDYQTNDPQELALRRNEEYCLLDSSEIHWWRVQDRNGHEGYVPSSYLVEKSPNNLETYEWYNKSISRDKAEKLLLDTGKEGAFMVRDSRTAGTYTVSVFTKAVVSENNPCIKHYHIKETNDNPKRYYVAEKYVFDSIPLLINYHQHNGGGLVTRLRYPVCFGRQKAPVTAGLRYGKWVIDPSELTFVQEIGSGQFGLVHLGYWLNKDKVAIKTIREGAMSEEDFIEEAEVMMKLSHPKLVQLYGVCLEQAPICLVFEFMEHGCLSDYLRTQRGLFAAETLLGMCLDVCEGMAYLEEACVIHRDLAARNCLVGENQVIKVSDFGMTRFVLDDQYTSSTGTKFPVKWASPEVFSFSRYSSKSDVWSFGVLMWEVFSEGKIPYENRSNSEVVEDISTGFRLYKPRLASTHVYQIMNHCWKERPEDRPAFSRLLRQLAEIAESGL
Experiment: Kinase inhibition assay (33P transfer), Itk
Type: biochemical
Conditions: read-out: Itk-1
IC50 overview

The cases that follow already have their IC50 on record.
structureAsSmiles: COc1cc(Nc2ncnc(-n3c(NCCc4ccccc4)nc4ccccc43)n2)cc(OC)c1OC
IC50: 4.82 to 7.03 µM
--
structureAsSmiles: COc1cc(Nc2ncnc(Nc3cc(-c4ccc(C)cc4)n[nH]3)n2)cc(OC)c1OC
IC50: 0.923 to 5.54 µM
--
structureAsSmiles: COc1ccc(CCNc2ncnc(N3CCCc4cc(C)ccc43)n2)cc1OC
IC50: > 11.1 µM

GET /values?readout=IC50&item= CC(C)(C)OC(=O)NCc1cccc(Nc2ncnc(Nc3cc(-c4ccco4)n[nH]3)n2)c1
5.35 to 7.8 µM

Could you share which IC50 value was measured for COc1cc(Nc2ncnc(-c3cccnc3NCc3ccc(F)cc3)n2)cc(OC)c1OCCN1CCOCC1 ?
> 8.01 µM

Quick check: IC50 of CC(C)(C)c1cc(Nc2ncnc(Nc3cccc(CO)c3)n2)[nH]n1 ?
1.18 to 7.07 µM

Which IC50 value belongs to COc1cc(Nc2ncnc(-c3cccc4ccccc34)n2)cc(OC)c1OC ?
9.01 to 11.6 µM

Requested read-out: IC50. Entry: CCN(CC)CCOc1cc(Nc2ncnc(-n3c(N)nc4ccccc43)n2)ccc1OC
7.8 to 10 µM

---

Reported IC50, Tek (Homo sapiens).

See these solved cases before continuing.
structureAsSmiles: COc1cc(Nc2ncnc(Nc3cc(OC)c(OC)c(OC)c3)n2)cc(OC)c1OC
tgt: Tek (Homo sapiens)
Sequence (Q02763 23-1124, species assumed): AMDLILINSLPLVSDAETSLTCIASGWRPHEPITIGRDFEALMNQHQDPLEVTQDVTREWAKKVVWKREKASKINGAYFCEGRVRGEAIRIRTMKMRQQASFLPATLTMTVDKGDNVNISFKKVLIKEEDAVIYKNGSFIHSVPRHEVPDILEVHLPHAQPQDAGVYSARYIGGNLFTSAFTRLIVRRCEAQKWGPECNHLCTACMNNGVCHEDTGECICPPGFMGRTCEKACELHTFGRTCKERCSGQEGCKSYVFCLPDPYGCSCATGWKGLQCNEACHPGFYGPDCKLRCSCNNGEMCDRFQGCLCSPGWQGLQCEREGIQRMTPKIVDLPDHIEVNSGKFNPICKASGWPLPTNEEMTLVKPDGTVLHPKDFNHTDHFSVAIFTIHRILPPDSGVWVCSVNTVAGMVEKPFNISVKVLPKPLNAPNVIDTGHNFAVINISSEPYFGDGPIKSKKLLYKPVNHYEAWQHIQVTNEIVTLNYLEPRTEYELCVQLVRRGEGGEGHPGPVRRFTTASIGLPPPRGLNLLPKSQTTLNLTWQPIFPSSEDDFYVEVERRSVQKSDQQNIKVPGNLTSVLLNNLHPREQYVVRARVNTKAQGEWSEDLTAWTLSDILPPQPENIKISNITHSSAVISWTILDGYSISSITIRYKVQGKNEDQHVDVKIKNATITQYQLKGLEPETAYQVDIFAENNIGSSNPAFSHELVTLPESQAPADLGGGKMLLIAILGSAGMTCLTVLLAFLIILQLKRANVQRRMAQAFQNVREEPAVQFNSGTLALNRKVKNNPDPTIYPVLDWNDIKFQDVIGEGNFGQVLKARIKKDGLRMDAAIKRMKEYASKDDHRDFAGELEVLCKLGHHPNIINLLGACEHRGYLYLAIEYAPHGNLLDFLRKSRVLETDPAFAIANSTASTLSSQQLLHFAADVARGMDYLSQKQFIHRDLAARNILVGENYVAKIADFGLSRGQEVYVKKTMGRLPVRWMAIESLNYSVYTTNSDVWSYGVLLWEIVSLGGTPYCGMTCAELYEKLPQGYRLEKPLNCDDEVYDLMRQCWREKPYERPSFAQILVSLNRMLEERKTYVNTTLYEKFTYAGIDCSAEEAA
recordedMeasurement: > 10.1 µM
--
structureAsSmiles: COc1cc(Nc2ncnc(-n3c(NCc4ccccc4)nc4ccccc43)n2)cc(OC)c1OC
tgt: Tek (Homo sapiens)
recordedMeasurement: > 9.31 µM
--
structureAsSmiles: COc1cc(Nc2ncnc(-n3c(NC(C)C)nc4ccccc43)n2)cc(OC)c1OC
tgt: Tek (Homo sapiens)
recordedMeasurement: > 10.3 µM

What does the record list as IC50 for COc1cc(Nc2ncnc(-n3ccc4cc(OCc5ccccc5)ccc43)n2)cc(OC)c1OC ?
> 9.31 µM

Please report the recorded IC50 for COc1ccc(Nc2ncnc(Nc3cccc(C)c3)n2)cc1OC .
> 13.3 µM

Request the reported IC50 associated with Nc1nc2ccccc2n1-c1ncnc(Nc2ccc(Cl)cc2)n1
1.18 to 7.11 µM

Param item = COc1cc(Nc2ncnc(N(C/C=C/c3ccccc3)c3ccc(Cl)cc3)n2)cc(OC)c1OC ; retrieve measured IC50.
> 8.93 µM

For the compound COc1ccc(Nc2ncnc(N(CC(=O)O)c3ccc4c(c3)OCO4)n2)cc1OC , what IC50 is on record?
> 10.6 µM

---

Listed here are compounds together with their documented IC50.
Biological target: Zap-70 (Homo sapiens, UniProt P43403)
Construct: Kinases are expressed as either kinase domains or full length constructs; made in house
Sequence (P43403 1-619): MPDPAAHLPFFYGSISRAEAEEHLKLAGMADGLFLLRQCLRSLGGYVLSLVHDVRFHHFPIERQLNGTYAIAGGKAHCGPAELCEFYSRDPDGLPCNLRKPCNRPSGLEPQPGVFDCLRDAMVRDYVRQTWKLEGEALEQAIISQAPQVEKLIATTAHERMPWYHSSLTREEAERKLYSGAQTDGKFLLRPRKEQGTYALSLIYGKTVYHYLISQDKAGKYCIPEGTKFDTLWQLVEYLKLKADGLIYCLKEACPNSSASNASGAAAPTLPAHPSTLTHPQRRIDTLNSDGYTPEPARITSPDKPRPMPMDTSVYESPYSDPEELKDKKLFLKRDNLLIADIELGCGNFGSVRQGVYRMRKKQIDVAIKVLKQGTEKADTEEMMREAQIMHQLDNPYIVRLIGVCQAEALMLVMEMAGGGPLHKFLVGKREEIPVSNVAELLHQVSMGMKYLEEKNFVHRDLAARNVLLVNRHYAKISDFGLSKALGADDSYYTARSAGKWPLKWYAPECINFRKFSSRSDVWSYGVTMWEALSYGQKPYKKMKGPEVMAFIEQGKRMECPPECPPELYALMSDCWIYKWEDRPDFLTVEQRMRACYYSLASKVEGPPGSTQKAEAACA
Experiment: Kinase inhibition assay (33P transfer), Zap-70
Format: biochemical
Conditions: Table 3, class symbols; read-out: Zap-1

structureAsSmiles: O=C(O)/C=C/c1ccc(Nc2ncnc(Nc3cc(-c4ccco4)[nH]n3)n2)cc1
IC50: 1.03 to 6.16 µM
--
structureAsSmiles: COc1cc(Nc2ncnc(-c3cccnc3Nc3ccc(C(C)=O)cc3)n2)cc(OC)c1OC
IC50: > 9.52 µM

For COc1ccc(CNc2ncnc(Nc3cc(-c4ccco4)n[nH]3)n2)cc1 , what is its reported IC50?
> 12.4 µM

What does the data say about its IC50? Entry: c1ccc(Cn2ncc3cc(Nc4ncnc(Nc5cccc(Cn6ccnn6)c5)n4)ccc32)cc1
> 9.48 µM

# lookup: IC50 of COC(=O)c1ccc(-c2cc(Nc3ncnc(NCCCO)n3)[nH]n2)cc1
> 12.2 µM

Consider the compound Nc1nc2ccccc2n1-c1ncnc(Nc2cccc(Cn3ccnn3)c2)n1 and give its measured IC50.
> 11.7 µM

Give its IC50 value. Item: COC(=O)c1ccc(-c2cc(Nc3ncnc(NCc4ccccc4F)n3)[nH]n2)cc1
> 10.7 µM

Query: IC50; subject: Clc1cccc(Nc2ncnc(Nc3ccc4[nH]ncc4c3)n2)c1
1.18 to 7.11 µM
